growth for assorted compounds
Test system: K-562 leukemia
Test: NCI-60 one-dose screen, 48 h (100 = growth as untreated, 0 = no growth, -100 = all killed)
Conditions: 10 µM unless noted
The panel holds about 83,000 compounds, 20% with a hit somewhere; the sample as a whole holds those more often. Activity calls are given as the source filed them. Rule for the calls: active = growth percent below 10; inactive = the rest.
property name: growth

compound: CC1(c2ccccc2)CO1 (stereo not drawn)
property name: growth
obs value: 106% (inactive)
//
compound: COc1ccc(C)cc1NC(=O)SC(C)C
property name: growth
obs value: 92.5% [100 µM] (inactive)
//
compound: Nc1nnc2cc(F)ccc2n1
property name: growth
obs value: 97.2% (inactive)
//
compound: CCNC(=O)OCCc1c2ccccc2nc2ccccc12
property name: growth
obs value: 88.2% (inactive)
//
compound: Cc1onc(-c2ccccc2Cl)c1C(=O)Cl
property name: growth
obs value: 101% (inactive)
//
compound: Cc1ccc(S(=O)(=O)CCCl)cc1
property name: growth
obs value: 95.6% (inactive)
//
compound: Oc1cc2ccccc2c(-c2c(O)c(O)cc3ccccc23)c1O
property name: growth
obs value: 43.8% (inactive)
//
compound: CCCNS(=O)(=O)c1ccc(Cl)cc1
property name: growth
obs value: 104% (inactive)
//
compound: Cc1ccc2nc(N)nnc2c1
property name: growth
obs value: 108% (inactive)
//
compound: O=[N+]([O-])c1c(O)c(CNCCCO)cc(CNCCCO)c1O
property name: growth
obs value: 95.9% (inactive)
//
compound: Nc1c(O)c(S(=O)(=O)O)c(O)c2c1C(=O)c1ccccc1C2=O
property name: growth
obs value: 22.1% (inactive)
//
compound: CC1=CC(=Nc2ccc(N(C)C)cc2)C=C(C)C1=O
property name: growth
obs value: 75.1% (inactive)
//
compound: CCOC(=O)CNC(=O)Sc1ccc(C(C)(C)C)cc1
property name: growth
obs value: 71.9% (inactive)
